Tested on: Cancer cells (CK8/18+) of patient-derived NSCLC cultures
Experiment: Cytotoxicity in patient-derived NSCLC cultures, cancer cells
Type: cell-based, human
Conditions: Homo sapiens, 168 h, culture TR64, cancer cells (CK8/18+), 7 days treatment
Experimental: Tissue samples were collected during surgery, and the NSCLC diagnosis, histological grade, stage, necrosis, and lymph node invasion status were determined by histopathological analysis. […] The immunofluorescence assay for the quantification of MDR markers was optimized to distinguish cancer cells from stromal cells using a cytokeratin 8/18 (CK8/18) antibody cocktail. […]
So basically, if IC50 comes in under 2 µM it's rule met, and if it's 2 µM or more it's rule not met.

compound	class label
COc1cc([C@@H]2c3cc4c(cc3[C@@H](O[C@@H]3O[C@@H]5CO[C@@H](C)O[C@H]5[C@H](O)[C@H]3O)[C@H]3COC(=O)[C@H]23)OCO4)cc(OC)c1O [Etoposide, etoposide]	rule not met
Nc1nc2[nH]cc(CCc3ccc(C(=O)N[C@@H](CCC(=O)O)C(=O)O)cc3)c2c(=O)[nH]1	rule not met
Nc1ccn([C@@H]2O[C@H](CO)[C@@H](O)C2(F)F)c(=O)n1	rule not met
CC(=O)O[C@@]12CO[C@@H]1C[C@H](O)[C@@]1(C)C(=O)[C@H](O)C3=C(C)[C@@H](OC(=O)[C@H](O)[C@@H](NC(=O)OC(C)(C)C)c4ccccc4)C[C@@](O)([C@@H](OC(=O)c4ccccc4)[C@H]21)C3(C)C	rule met
CC(=O)O[C@H]1C(=O)[C@@]2(C)[C@H]([C@H](OC(=O)c3ccccc3)[C@]3(O)C[C@H](OC(=O)[C@H](O)[C@@H](NC(=O)c4ccccc4)c4ccccc4)C(C)=C1C3(C)C)[C@]1(OC(C)=O)CO[C@@H]1C[C@@H]2O	rule met

Moving on to the next compound.
Quick check: IC50 of CCC1=C[C@@H]2CN(C1)Cc1c([nH]c3ccccc13)[C@@](C(=O)OC)(c1cc3c(cc1OC)N(C)[C@H]1[C@@](O)(C(=O)OC)[C@H](OC(C)=O)[C@]4(CC)C=CCN5CC[C@]31[C@@H]54)C2 under 2 µM? rule met

====

system: Cancer cells (CK8/18+) of patient-derived NSCLC cultures; assay: Cytotoxicity in patient-derived NSCLC cultures, cancer cells; format: cell-based, human; conditions: culture TR64, cancer cells (CK8/18+), 7 days treatment
readout label: IC50
Respond with a number, then the unit of measure.

>>> df
                                  molecule  obs_value
0  N.N.[Cl][Pt][Cl] [Cisplatin, cisplatin]    6.07 µM

// sample N.N.O=C([O-])C1(C(=O)[O-])CCC1.[Pt+2] , its IC50 was 39 µM

====

So I've got a bunch of compounds here, and I need their IC50 values.
system: Cancer cells (CK8/18+) of patient-derived NSCLC cultures; experiment: Cytotoxicity in patient-derived NSCLC cultures, cancer cells; type: cell-based, human; conditions: Homo sapiens, 168 h, culture TR58, cancer cells (CK8/18+), 7 days treatment
Answers are plain numbers, in nM.

Solved entries:
compound	readout label	obs value
Nc1nc2[nH]cc(CCc3ccc(C(=O)N[C@@H](CCC(=O)O)C(=O)O)cc3)c2c(=O)[nH]1 [Pemetrexed, pemetrexed]	IC50	181000
Nc1ccn([C@@H]2O[C@H](CO)[C@@H](O)C2(F)F)c(=O)n1 [Gemcitabine, gemcitabine]	IC50	2550
CCC1=C[C@@H]2CN(C1)Cc1c([nH]c3ccccc13)[C@@](C(=O)OC)(c1cc3c(cc1OC)N(C)[C@H]1[C@@](O)(C(=O)OC)[C@H](OC(C)=O)[C@]4(CC)C=CCN5CC[C@]31[C@@H]54)C2 [Vinorelbine]	IC50	129
COc1cc([C@@H]2c3cc4c(cc3[C@@H](O[C@@H]3O[C@@H]5CO[C@@H](C)O[C@H]5[C@H](O)[C@H]3O)[C@H]3COC(=O)[C@H]23)OCO4)cc(OC)c1O [Etoposide, etoposide]	IC50	7130
CC(=O)O[C@H]1C(=O)[C@@]2(C)[C@H]([C@H](OC(=O)c3ccccc3)[C@]3(O)C[C@H](OC(=O)[C@H](O)[C@@H](NC(=O)c4ccccc4)c4ccccc4)C(C)=C1C3(C)C)[C@]1(OC(C)=O)CO[C@@H]1C[C@@H]2O [Paclitaxel, paclitaxel]	IC50	1180

// sample CC(=O)O[C@@]12CO[C@@H]1C[C@H](O)[C@@]1(C)C(=O)[C@H](O)C3=C(C)[C@@H](OC(=O)[C@H](O)[C@@H](NC(=O)OC(C)(C)C)c4ccccc4)C[C@@](O)([C@@H](OC(=O)c4ccccc4)[C@H]21)C3(C)C [Docetaxel, docetaxel] , its IC50 was 1310
